targetOrSystem: KRAS(G12D)/SOS1 (Homo sapiens, UniProt P01116, G12D)
Sequence (P01116 1-188 isoform P01116-2 G12D): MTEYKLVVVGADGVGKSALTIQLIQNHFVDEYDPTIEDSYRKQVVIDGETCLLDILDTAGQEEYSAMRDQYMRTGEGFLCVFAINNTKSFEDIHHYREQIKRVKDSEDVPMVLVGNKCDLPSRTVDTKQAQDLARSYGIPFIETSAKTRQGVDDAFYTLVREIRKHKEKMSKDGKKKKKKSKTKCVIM
assayRemarks: KRAS(G12D)/SOS1 homogeneous time-resolved fluorescence (HTRF) assay
measurementConditions: absence of GTP; 4° C., 3 hr
pIC50: −log10 of the molar value.
measure: pIC50

Completed entries (count: 3):
{"smilesRecord": "C#Cc1cccc2cc(O)cc(-c3ncc4c(N5CC6CCC(C5)N6)nc(OCC5(CN6CCN(CC7CCN(Cc8ccc(-n9c(C(=O)NCC(F)(F)F)nnc9-c9cc(C(C)C)c(O)cc9O)cc8)CC7)CC6)CC5)nc4c3F)c12", "pIC50": "> 7.00"}
{"smilesRecord": "CCNC(=O)c1nnc(-c2cc(C(C)C)c(O)cc2O)n1-c1ccc(CN2CCN([C@H]3C[C@@H](COc4nc(N5CC6CCC(C5)N6)c5cnc(-c6cccc7cccc(C#N)c67)c(F)c5n4)N(C)C3)CC2)cc1", "pIC50": "< 6.00"}
{"smilesRecord": "CC(C)NC(=O)c1nnc(-c2cc(C(C)C)c(O)cc2O)n1-c1ccc(CN2CCN([C@H]3C[C@@H](COc4nc(N5CC6CCC(C5)N6)c5cnc(-c6ccccc6C(F)(F)F)c(F)c5n4)N(C)C3)CC2)cc1", "pIC50": "< 6.00"}

Just so you know, measured pIC50 for `C#Cc1c(F)ccc2cc(O)cc(-c3nc(OC)c4c(N5CC6CCC(C5)N6)nc(OCC5(CN6CCN(CC7CCN(Cc8ccc9c(c8)CN(C(=O)c8cc(C(C)C)c(O)cc8O)C9)CC7)CC6)CC5)nc4c3F)c12` came out at > 7.00

---

Property: pIC50; scope: individual compounds
targetOrSystem: KRAS(G12D)/SOS1 (Homo sapiens, UniProt P01116, G12D)
assayRemarks: KRAS(G12D)/SOS1 homogeneous time-resolved fluorescence (HTRF) assay
measurementConditions: absence of GTP; 4° C., 3 hr
pIC50: −log10 of the molar value.

Below, 3 compounds whose answers are already recorded.
{"compound": "CCNC(=O)c1nnc(-c2cc(C(C)C)c(O)cc2O)n1-c1ccc(CN2CCC(CN3CCN([C@H]4C[C@@H](COc5nc(N6CC7CCC(C6)N7)c6cnc(-c7cccc(F)c7C)c(F)c6n5)N(C)C4)CC3)CC2)cc1 [Compound 83]", "pIC50": "< 6.00"}
{"compound": "C#Cc1cccc2cc(O)cc(-c3ncc4c(N5CC6CCC(C5)N6)nc(OCC5(CN6CCN(Cc7ccc(-n8c(C(=O)NC(C)C(F)(F)F)nnc8-c8cc(C(C)C)c(O)cc8O)cc7)CC6)CC5)nc4c3F)c12 (stereo not shown) [Compound 155]", "pIC50": "> 7.00"}
{"compound": "C#Cc1c(F)ccc2cc(O)cc(-c3ncc4c(N5CC6CCC(C5)N6)nc(OCC5(CN6CCN(CC7CN(Cc8ccc9c(c8)CN(C(=O)c8cc(C(C)C)c(O)cc8O)C9)C7)CC6)CC5)nc4c3F)c12 [Compound 164]", "pIC50": "> 7.00"}

Attention now shifts to the item below.
Memo: C#Cc1c(F)ccc2cc(O)cc(-c3nc(OC)c4c(N5CC6CCC(C5)N6)nc(OCC5(CN6CCN(CC7CCN(Cc8ccc(-n9c(C(=O)NCC)nnc9-c9cc(C(C)C)c(O)cc9O)cc8)CC7)CC6)CC5)nc4c3F)c12 [Compound 169] , reported pIC50: > 7.00
